This collection of values is drawn from ChEMBL document CHEMBL1155872.

- Test system: GT1-1
- MEASUREMENT_NOTES: Inhibition of prazosin uptake at transport-P transporter protein in mouse GT1-1 cells at 100 uM relative to desipramine
- Assay type: cell-based
Form field: inhibition (one value per entry).
I only need the number, in %, no unit after it.

Some compounds with recorded inhibition:
{"STRUCTURE_STRING": "COc1cc2nc(N3CCN(C(=O)c4ccccc4)CC3)nc(N)c2cc1OC", "MEASURED_METRIC": "inhibition", "OBSERVED": 63}
{"STRUCTURE_STRING": "CNc1nc(N2CCN(C(=O)c3ccco3)CC2)nc2cc(OC)c(OC)cc12", "MEASURED_METRIC": "inhibition", "OBSERVED": 0}
{"STRUCTURE_STRING": "COc1cc2nc(N3CCN(C(=O)c4ccco4)CC3)nc(O)c2cc1OC", "MEASURED_METRIC": "inhibition", "OBSERVED": 0}

The compound COc1cc2cnc(N3CCN(C(=O)c4ccco4)CC3)nc2cc1OC showed inhibition equal to 5

The compound Nc1nc(N2CCN(C(=O)c3ccco3)CC2)nc2cc3c(cc12)OCCO3 showed inhibition equal to 42

The compound COc1cc2nc(N3CCN(C(C)=O)CC3)nc(N)c2cc1OC showed inhibition equal to 37

The compound COc1cc2nc(N3CCN(C(=O)c4ccco4)CC3)nc(Nc3ccccc3)c2cc1OC showed inhibition equal to 80

The compound COc1cc2nc(N3CCN(C(=O)c4ccco4)CC3)nc(NCc3ccccc3)c2cc1OC showed inhibition equal to 69

The compound COc1cc2nc(N3CCC(C)CC3)nc(N)c2cc1OC showed inhibition equal to 85

The compound COc1cc2nc(NCc3ccco3)nc(N)c2cc1OC showed inhibition equal to 71

The compound CCN(CC)c1nc(N2CCN(C(=O)c3ccco3)CC2)nc2cc(OC)c(OC)cc12 showed inhibition equal to 55

---

- System: GT1-1
- MEASUREMENT_NOTES: Activation of [3H]prazosin uptake at transport-P transporter protein in mouse GT1-1 cells at 1 uM relative to control
- Assay type: cell-based
MEASURED_METRIC: Activity
Please format your answer as a value with the unit trailing.

{"COMPOUND": "COc1cc2nc(N3CCN(C(=O)c4ccccc4)CC3)nc(N)c2cc1OC", "TESTED_ON": "GT1-1", "Activity": "0%"}
{"COMPOUND": "COc1cc2nc(N3CCN(C(=O)OCc4ccccc4)CC3)nc(N)c2cc1OC", "TESTED_ON": "GT1-1", "Activity": "0%"}
{"COMPOUND": "COc1cc2nc(NCCN3CCCCC3)nc(N)c2cc1OC", "TESTED_ON": "GT1-1", "Activity": "13%"}
{"COMPOUND": "CCN(CC)c1nc(N2CCN(C(=O)c3ccco3)CC2)nc2cc(OC)c(OC)cc12", "TESTED_ON": "GT1-1", "Activity": "0%"}

Now examine the next entry.
Observed Activity on GT1-1, entry COc1cc2nc(N3CCN(C(=O)C(F)(F)F)CC3)nc(N)c2cc1OC , equals 0%

---

Form field: inhibition (one value per entry).
- Tested on: GT1-1
- MEASUREMENT_NOTES: Inhibition of prazosin uptake at transport-P transporter protein in mouse GT1-1 cells at 100 uM relative to desipramine
- Assay type: cell-based
I only need the number, in %, no unit after it.

Some compounds with recorded inhibition:
{"COMPOUND": "COc1cc2nc(N3CCN(C(=O)c4ccco4)CC3)nc(NC(C)=O)c2cc1OC", "TESTED_ON": "GT1-1", "inhibition (%)": 0}
{"COMPOUND": "COc1cc2nc(N3CCN(C(=O)c4ccco4)CC3)nc(N3CCOCC3)c2cc1OC", "TESTED_ON": "GT1-1", "inhibition (%)": 61}
{"COMPOUND": "COc1cc2nc(N3CCN(C(=O)C(F)(F)F)CC3)nc(N)c2cc1OC", "TESTED_ON": "GT1-1", "inhibition (%)": 31}
{"COMPOUND": "COc1cc2nc(N3CCN(C(=O)OCc4ccccc4)CC3)nc(N)c2cc1OC", "TESTED_ON": "GT1-1", "inhibition (%)": 75}
{"COMPOUND": "Nc1nc(N2CCN(C(=O)c3ccco3)CC2)nc2ccccc12", "TESTED_ON": "GT1-1", "inhibition (%)": 64}
{"COMPOUND": "Nc1nc(N2CCN(C(=O)c3ccccc3)CC2)nc2ccccc12", "TESTED_ON": "GT1-1", "inhibition (%)": 73}

The compound COc1cc2nc(N3CCN(C(=O)C4CCCO4)CC3)nc(N)c2cc1OC (racemic) showed inhibition equal to 41

The compound COc1cc2nc(NCCN3CCCCC3)nc(N)c2cc1OC showed inhibition equal to 52

The compound COc1cc2nc(N3CCN(c4ccccc4)CC3)nc(N)c2cc1OC showed inhibition equal to 93

The compound COc1cc2nc(N3CCCN(C(=O)c4ccco4)CC3)nc(N)c2cc1OC showed inhibition equal to 82
